- measurement-target: purified human HDAC6 (Homo sapiens)
- Construct: purchased BPS Bioscience 5006
- Sequence (Q9UBN7 1-1215): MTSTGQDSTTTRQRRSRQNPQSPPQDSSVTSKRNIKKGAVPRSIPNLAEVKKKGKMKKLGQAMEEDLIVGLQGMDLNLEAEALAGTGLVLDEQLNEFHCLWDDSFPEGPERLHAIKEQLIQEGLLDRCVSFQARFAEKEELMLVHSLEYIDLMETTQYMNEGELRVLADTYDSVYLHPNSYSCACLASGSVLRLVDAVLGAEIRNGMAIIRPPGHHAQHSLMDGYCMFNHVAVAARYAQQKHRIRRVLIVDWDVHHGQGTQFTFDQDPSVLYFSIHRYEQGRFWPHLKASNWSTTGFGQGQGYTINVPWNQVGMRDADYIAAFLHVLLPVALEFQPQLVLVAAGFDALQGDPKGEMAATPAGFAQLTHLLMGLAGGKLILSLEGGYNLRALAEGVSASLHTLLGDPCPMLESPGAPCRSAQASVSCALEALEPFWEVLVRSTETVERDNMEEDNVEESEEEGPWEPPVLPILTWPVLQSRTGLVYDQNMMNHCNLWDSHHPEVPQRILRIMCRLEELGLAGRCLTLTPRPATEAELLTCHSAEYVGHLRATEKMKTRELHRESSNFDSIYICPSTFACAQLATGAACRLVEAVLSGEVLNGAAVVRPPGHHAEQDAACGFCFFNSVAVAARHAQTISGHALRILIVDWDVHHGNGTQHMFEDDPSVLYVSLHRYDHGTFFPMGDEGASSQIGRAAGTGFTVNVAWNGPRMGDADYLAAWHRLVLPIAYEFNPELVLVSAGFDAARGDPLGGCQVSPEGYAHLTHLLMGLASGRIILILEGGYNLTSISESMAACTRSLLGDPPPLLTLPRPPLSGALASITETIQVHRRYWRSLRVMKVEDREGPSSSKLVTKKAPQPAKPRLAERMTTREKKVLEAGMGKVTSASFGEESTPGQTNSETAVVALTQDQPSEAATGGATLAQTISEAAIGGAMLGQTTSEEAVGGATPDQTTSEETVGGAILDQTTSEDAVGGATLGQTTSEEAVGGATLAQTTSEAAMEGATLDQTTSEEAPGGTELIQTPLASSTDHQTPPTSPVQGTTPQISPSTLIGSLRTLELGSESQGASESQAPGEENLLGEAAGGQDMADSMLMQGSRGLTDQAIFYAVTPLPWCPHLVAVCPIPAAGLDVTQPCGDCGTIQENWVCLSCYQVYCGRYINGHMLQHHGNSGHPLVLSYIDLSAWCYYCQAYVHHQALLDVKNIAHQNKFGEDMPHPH
- run-description: HDAC6 Enzyme Assay
- Assay type: biochemical
- condition-info: compound concentration 0.37 μM, read-out: Percent Inhibition
assay-metric: inhibition at 0.37 µM (%)

INSERT INTO results (compound, unit_of_measure, numeric_readout) VALUES
  ('O=C(NO)c1ccc2ccn(CCN(C(=O)C3CC3)c3cccc(-n4cccn4)c3)c(=O)c2c1', '%', 89.6),
  ('O=C(NO)c1ccc2ncn(CCc3cccc(-c4ccn[nH]4)c3)c(=O)c2c1', '%', 94.6),
  ('CS(=O)(=O)Nc1cccc(Cn2cnc3ccc(C(=O)NO)cc3c2=O)c1', '%', 93.3),
  ('O=C(NO)c1ccc2ncn(CCc3cccc(-c4ccc(F)cc4)c3)c(=O)c2c1', '%', 91.7),
  ('Cc1ccccc1Cc1nc2cc(C(=O)NO)ccc2c(=O)[nH]1', '%', 86.6),
  ('CC(=O)Nc1cccc(-c2cccc(Cn3cnc4ccc(C(=O)NO)cc4c3=O)c2)c1', '%', 98.4),
  ('CC(=O)Nc1ccc(-c2cccc(CCn3cnc4ccc(C(=O)NO)cc4c3=O)c2)cc1', '%', 93.8),
  ('O=C(NO)c1ccc2ncn(CCc3cccc(-c4cccc(C(F)(F)F)c4)c3)c(=O)c2c1', '%', 91.6),
  ('COc1ncccc1-c1cccc(Cn2cnc3ccc(C(=O)NO)cc3c2=O)c1', '%', 94),
  ('CCC(C)c1nc2cc(C(=O)NO)ccc2c(=O)n1Cc1ccc(C(F)(F)F)cc1 (stereo not shown)', '%', 90.6),
  ('Cc1ccc(-c2cccc(CCn3cnc4ccc(C(=O)NO)cc4c3=O)c2)cc1', '%', 88.1),
  ('O=C(NO)c1ccc2ccn(CCc3cccc(C4CCNCC4)c3)c(=O)c2c1', '%', 91.2),
  ('O=C(NO)c1ccc2ncn(Cc3cccc(-c4cccc(C(=O)NC5CC5)c4)c3)c(=O)c2c1', '%', 95.6),
  ('CC(=O)Nc1ccc(-c2cccc(Cn3cnc4ccc(C(=O)NO)cc4c3=O)c2)cc1', '%', 86.7),
  ('COc1ccc(-c2cccc(Cn3cnc4ccc(C(=O)NO)cc4c3=O)c2)cn1', '%', 96.6),
  ('O=C(NO)c1ccc2ncn(CCc3cccc(-c4cc5ccccc5s4)c3)c(=O)c2c1', '%', 83.5),
  ('Nc1cccc(-c2cccc(CCn3cnc4ccc(C(=O)NO)cc4c3=O)c2)c1', '%', 76.1),
  ('CN(C)c1ccc(-c2nc3cc(C(=O)NO)ccc3c(=O)n2Cc2ccc(C(F)(F)F)cc2)cc1', '%', 78.8),
  ('COc1ccc(-c2nc3cc(C(=O)NO)ccc3c(=O)[nH]2)cc1', '%', 80.8);
